Test: qHTS Assay for Foot and Mouth Disease Virus Antivirals: Primary Screen against the MLPCN compound library; further: nearly all actives have a fitted effect of over 55% in size
Details: FMDV antiviral cell-based qHTS; series mostly up to 57.9 µM
The whole screen tested about 410,000 compounds, of which about 2,000 (0.49%) were called active. Not shown: some 8% with an inconclusive outcome. The call rests on the fitted dose curve; tested in HEK293 reporter line. For the sample, actives were picked, then their nearest neighbours and some compounds at random.
Your reply should match one of these outcome classes. active, inactive

# outcome recorded in this test, key = Cc1cccc(NC(=O)/C(C#N)=C\c2ccc(C(=O)O)cc2)c1 inactive

# outcome recorded in this test, key = CCOc1ccc(CNC(=O)CCCn2ccc3cc(S(=O)(=O)N4CCCC4)ccc32)cc1 inactive

# outcome recorded in this test, key = CCOC(=O)C1CCN(S(=O)(=O)c2cccc(C(=O)Nc3ccccc3)c2)CC1 inactive

# outcome recorded in this test, key = COc1ccc(-c2noc(CN(C(=O)c3cccs3)C(C)C)n2)cc1 inactive

# outcome recorded in this test, key = N#C/C(=C\c1ccc(OCc2ccc(C(=O)O)cc2)cc1)C(=O)N1CCOCC1 active

----------
Assay: qHTS Assay for Foot and Mouth Disease Virus Antivirals: Primary Screen against the MLPCN compound library; further: nearly all actives have a fitted effect of over 55% in size
Conditions: FMDV antiviral cell-based qHTS; series mostly up to 57.9 µM
Among all 410,000 compounds or so, about 2,000 (0.49%) were called active. Not shown: some 8% with an inconclusive outcome. Calls come from the whole dose curve; tested in HEK293 reporter line. The full list was thinned out, with actives kept by preference.
Your reply should match one of these outcome classes. YES (active), NO (inactive)

# outcome recorded in this test, key = CC(C)Oc1ccc(CN2CCC2(C)C(=O)Nc2cccc(Oc3ccccc3)c2)cc1 (stereo unspecified) NO

# outcome recorded in this test, key = COc1ccc(S(=O)(=O)Nc2nc3ccccc3s2)cc1 NO

# outcome recorded in this test, key = Cc1cc(C(=O)CSc2nc3ccccc3[nH]2)c(C)n1Cc1ccco1 YES

# outcome recorded in this test, key = CCCc1cnc(N2CCN(C(=O)c3ccc(F)cc3)CC2)nc1 NO

# outcome recorded in this test, key = COc1ccc(-c2nc(NC(=O)c3[nH]c(C)c(C(C)=O)c3C)sc2C)cc1 YES

# outcome recorded in this test, key = COc1ccc(C=NNc2nc3ccccc3s2)cc1 YES

# outcome recorded in this test, key = CCOc1cc(/C=N/Nc2cc(C)nc(-n3nc(C)cc3C)n2)ccc1O NO

# outcome recorded in this test, key = COc1ccc(-c2nc(NC(=O)c3c(C)noc3C)sc2C)cc1 NO

# outcome recorded in this test, key = CC(C)(C)OC(=O)N1CCCC(C(=O)Nc2cccc(C(=O)NCc3ccccc3)c2)C1 (stereo unspecified) NO

# outcome recorded in this test, key = O=C(CSc1nc2ccccc2[nH]1)c1ccc(Cl)s1 NO

# outcome recorded in this test, key = Cc1nn2cnnc2c(C)c1Cc1ccc(Cl)cc1 NO

----------
Test: qHTS Assay for Foot and Mouth Disease Virus Antivirals: Primary Screen against the MLPCN compound library; further: nearly all actives have a fitted effect of over 55% in size
Details: FMDV antiviral cell-based qHTS; series mostly up to 57.9 µM
Hit rate of the full screen: of about 410,000 compounds, about 2,000 (0.49%) were called active. About 8% were inconclusive and are not listed. Calls follow the shape of the full dose curve; tested in HEK293 reporter line. The full list was thinned out, with actives kept by preference.
Your reply should match one of these outcome classes. active, inactive

# outcome recorded in this test, key = CCc1cc(=O)[nH]c(SCc2nc(-c3ccc(C(F)(F)F)cc3)no2)n1 inactive

# outcome recorded in this test, key = COC(=O)c1ccc(COc2ccc(/C=N/NC(N)=S)cc2)o1 inactive

# outcome recorded in this test, key = CC(=O)NC12CC3CC(C1)CC(C(=O)Oc1ccc(N(C)S(=O)(=O)c4cc(C)ccc4C)cc1)(C3)C2 inactive

# outcome recorded in this test, key = COc1ccc(C(O)(CC(C)C)C(CN2CCOCC2)c2ccccc2)cc1 (stereo not given) inactive

# outcome recorded in this test, key = CCc1ccc(OCc2ccc(C(=O)O)o2)cc1 active
